organism: Rattus norvegicus; assay: The release rate of the free drug from the substrate in rat liver lysosomal preparation by rat liver lysosomal assay; format: ADME

{"compound": "CC(=O)O[C@H]1C(=O)[C@@]2(C)C([C@H](OC(=O)c3ccccc3)[C@]3(O)C[C@H](OC(=O)[C@H](OC(=O)OCc4ccc(NC(=O)[C@H](CCCCN)NC(=O)[C@H](Cc5ccccc5)NC(=O)OCc5ccccc5)cc4)[C@@H](NC(=O)c4ccccc4)c4ccccc4)C(C)=C1C3(C)C)[C@]1(OC(C)=O)COC1C[C@@H]2O (some centres undefined)", "T1/2, min": 19}
{"compound": "COc1cccc2c1C(=O)c1c(O)c3c(c(O)c1C2=O)C[C@@](O)(C(=O)CO)C[C@@H]3OC1CC(NC(=O)OCc2ccc(NC(=O)[C@H](CCCCN)NC(=O)[C@H](Cc3ccccc3)NC(=O)OCc3ccccc3)cc2)C(O)C(C)O1 (some centres undefined)", "T1/2, min": 29}
{"compound": "CC(=O)O[C@H]1C(=O)[C@@]2(C)C([C@H](OC(=O)c3ccccc3)[C@]3(O)C[C@H](OC(=O)[C@H](O)[C@@H](NC(=O)c4ccccc4)c4ccccc4)C(C)=C1C3(C)C)[C@]1(OC(C)=O)COC1C[C@@H]2OC(=O)OCc1ccc(NC(=O)[C@H](CCCCN)NC(=O)[C@H](Cc2ccccc2)NC(=O)OC(C)(C)C)cc1 (some centres undefined)", "T1/2, min": 66}
{"compound": "COC12C(COC(N)=O)C3=C(C(=O)C(C)=C(N)C3=O)N1CC1C2N1C(=O)OCc1ccc(NC(=O)[C@H](CCCCN)NC(=O)[C@H](Cc2ccccc2)NC(=O)OC(C)(C)C)cc1 (some centres undefined)", "T1/2, min": 24}

====

assay: The release rate of the free drug from the substrate in presence of Cathepsin B by Cathepsin B assay; type: ADME

{"compound": "CC(=O)O[C@H]1C(=O)[C@@]2(C)C([C@H](OC(=O)c3ccccc3)[C@]3(O)C[C@H](OC(=O)[C@H](O)[C@@H](NC(=O)c4ccccc4)c4ccccc4)C(C)=C1C3(C)C)[C@]1(OC(C)=O)COC1C[C@@H]2OC(=O)OCc1ccc(NC(=O)[C@H](CCCCN)NC(=O)[C@H](Cc2ccccc2)NC(=O)OC(C)(C)C)cc1 (some centres undefined)", "measurementUnits": "min", "T1/2": 40}
{"compound": "COc1cccc2c1C(=O)c1c(O)c3c(c(O)c1C2=O)C[C@@](O)(C(=O)CO)C[C@@H]3OC1CC(NC(=O)OCc2ccc(NC(=O)[C@H](CCCCN)NC(=O)[C@H](Cc3ccccc3)NC(=O)OCc3ccccc3)cc2)C(O)C(C)O1 (some centres undefined)", "measurementUnits": "min", "T1/2": 8}
{"compound": "CC(=O)O[C@H]1C(=O)[C@@]2(C)C([C@H](OC(=O)c3ccccc3)[C@]3(O)C[C@H](OC(=O)[C@H](OC(=O)OCc4ccc(NC(=O)[C@H](CCCCN)NC(=O)[C@H](Cc5ccccc5)NC(=O)OCc5ccccc5)cc4)[C@@H](NC(=O)c4ccccc4)c4ccccc4)C(C)=C1C3(C)C)[C@]1(OC(C)=O)COC1C[C@@H]2O (some centres undefined)", "measurementUnits": "min", "T1/2": 540}
{"compound": "COC12C(COC(N)=O)C3=C(C(=O)C(C)=C(N)C3=O)N1CC1C2N1C(=O)OCc1ccc(NC(=O)[C@H](CCCCN)NC(=O)[C@H](Cc2ccccc2)NC(=O)OC(C)(C)C)cc1 (some centres undefined)", "measurementUnits": "min", "T1/2": 10}
